system: HOP-62; assay: Growth inhibition of human HOP62 cells at 10 uM after 48 hrs by coulter counter analysis; type: functional; conditions: HOP-62, 48 h, read-out: GI
measure.name: inhibition of growth at 10 µM

Please review the entries below; each comes with its answer.
Endpoint output: inhibition of growth at 10 µM of CCOC(=O)c1sc(NC(=O)C(C)N2CCCCC2)nc1C (stereo unspecified) . Value? < 10%

What do you get for CCOC(=O)c1sc(NC(=O)CCN2CCN(C)CC2)nc1C ? < 10%

# iterate: CCOC(=O)c1sc(NC(=O)C(C)N(CC)CC)nc1C (stereo unspecified) < 10%

Others:
Given the entry Cc1csc(NC(=O)C(C)N2CCN(C)CC2)n1 (stereo unspecified) , report its measured inhibition of growth at 10 µM. 10.9%

Then this compound: O=C(CCN1CCN(c2ccccc2)CC1)Nc1nc(-c2ccccc2)cs1 24.8%

Thanks! And Cc1cnc(NC(=O)CCN2CCN(c3ccccc3)CC2)s1 ? < 10%

====

Entries and their inhibition of growth at 10 µM values follow.
test system: HOP-92; assay: Growth inhibition of human HOP92 cells at 10 uM after 48 hrs by coulter counter analysis; assay type: functional; conditions: HOP-92, 48 h, read-out: GI

Look up inhibition of growth at 10 µM for this compound: CN1CCN(CCC(=O)Nc2nc(-c3ccccc3)cs2)CC1 24.5%

Ok, now Cc1cnc(NC(=O)CN2CCN(C)CC2)s1 < 10%

Ok, now O=C(CCN1CCN(c2ccccc2)CC1)Nc1nc(-c2ccccc2)cs1 59.6%

Consider next the compound CCOC(=O)c1sc(NC(=O)C(C)N(CC)CC)nc1C (configuration not stated) in the same way. < 10%

Please give the result for Cc1cnc(NC(=O)CN2CCN(c3ccccc3)CC2)s1 too. < 10%

Same thing, different compound: CCOC(=O)c1sc(NC(=O)C(C)N2CCOCC2)nc1C (configuration not stated) < 10%

Repeat for the following compound: Cc1csc(NC(=O)C(C)N2CCN(C)CC2)n1 (configuration not stated) < 10%

Continue with CC(C(=O)Nc1nccs1)N1CCN(c2ccccc2)CC1 (configuration not stated) < 10%

---
Report inhibition of growth at 10 µM for CCOC(=O)c1sc(NC(=O)C(C)N2CCCCC2)nc1C (configuration not stated) please. < 10%

Cool, now Cc1cnc(NC(=O)CCN2CCN(c3ccccc3)CC2)s1 < 10%

Follow-up item: Cc1csc(NC(=O)C(C)N2CCN(c3ccccc3)CC2)n1 (configuration not stated) < 10%

Further, for O=C(CN1CCN(c2ccccc2)CC1)Nc1nc(-c2ccccc2)cs1 ? 25.6%

====

test system: OVCAR-4; assay: Growth inhibition of human OVCAR4 cells at 10 uM after 48 hrs by coulter counter analysis; assay type: functional; details: OVCAR-4, 48 h, read-out: GI
List of inhibition of growth at 10 µM values.

Consider the compound CCOC(=O)c1sc(NC(=O)CN(C)C)nc1C and give its measured inhibition of growth at 10 µM. < 10%

Follow-up item: CCOC(=O)c1sc(NC(=O)C(C)N2CCN(C)CC2)nc1C (centres undefined) < 10%

Another: CCOC(=O)c1sc(NC(=O)CCN2CCN(C)CC2)nc1C < 10%

Check CC(C(=O)Nc1nccs1)N1CCN(C)CC1 (centres undefined) too. < 10%

// repeat for CC(C(=O)Nc1nccs1)N1CCN(c2ccccc2)CC1 (centres undefined) and report < 10%

Others:
Record request: inhibition of growth at 10 µM value, item Cc1cnc(NC(=O)CN2CCN(c3ccccc3)CC2)s1 < 10%

Another: CCOC(=O)c1sc(NC(=O)C(C)N(CC)CC)nc1C (centres undefined) < 10%

Try this compound too: CCOC(=O)c1sc(NC(=O)C(C)N2CCCCC2)nc1C (centres undefined) < 10%

Follow-up entry: Cc1cnc(NC(=O)CCN2CCN(c3ccccc3)CC2)s1 < 10%

====

test system: MOLT-4; assay: Growth inhibition of human MOLT4 cells at 10 uM after 48 hrs by coulter counter analysis; format: functional; conditions: MOLT-4, 48 h, read-out: GI
Here, each record is paired with measured inhibition of growth at 10 µM data.

Record excerpt, results attached:
Report inhibition of growth at 10 µM for Cc1cnc(NC(=O)CN2CCN(c3ccccc3)CC2)s1 please. < 10%

Queued: CCOC(=O)c1sc(NC(=O)CCN2CCN(c3ccccc3)CC2)nc1C < 10%

Follow-up item: CCOC(=O)c1sc(NC(=O)CCN2CCN(C)CC2)nc1C < 10%

Do the same for CCOC(=O)c1sc(NC(=O)C(C)N2CCOCC2)nc1C (centres undefined) please < 10%

Note, next up: CCOC(=O)c1sc(NC(=O)C(C)N(CC)CC)nc1C (centres undefined) < 10%

Others:
Field request: inhibition of growth at 10 µM | item: Cc1csc(NC(=O)C(C)N2CCN(C)CC2)n1 (centres undefined) 12.1%

Repeat with Cc1cnc(NC(=O)CCN2CCN(c3ccccc3)CC2)s1 < 10%

Also O=C(CCCl)Nc1nc(-c2ccccc2)cs1 , if possible. 40.7%

Also, CCOC(=O)c1sc(NC(=O)CCN2CCOCC2)nc1C please. < 10%

Now try Cc1csc(NC(=O)C(C)N2CCN(c3ccccc3)CC2)n1 (centres undefined) . < 10%

Request: CCOC(=O)c1sc(NC(=O)C(C)N2CCCCC2)nc1C (centres undefined) < 10%

Now the compound O=C(CN1CCN(c2ccccc2)CC1)Nc1nc(-c2ccccc2)cs1 31.3%

For CC(C(=O)Nc1nccs1)N1CCN(C)CC1 (centres undefined) then? < 10%

Moving on to the next compound: CN1CCN(CCC(=O)Nc2nc(-c3ccccc3)cs2)CC1 35.7%

Would you mind doing CC(C(=O)Nc1nccs1)N1CCN(c2ccccc2)CC1 (centres undefined) as well? < 10%

====

assay: Growth inhibition of human NCI-ADR-RES cells at 10 uM after 48 hrs by coulter counter analysis; assay type: functional; details: read-out: GI
measure.name: inhibition of growth at 10 µM

Consider the compound shown here: CC(C(=O)Nc1nccs1)N1CCN(C)CC1 (centres undefined) What is its recorded inhibition of growth at 10 µM? < 10%

Next compound: O=C(CCN1CCN(c2ccccc2)CC1)Nc1nc(-c2ccccc2)cs1 34.6%

Same again, this time with CCOC(=O)c1sc(NC(=O)CN(C)C)nc1C < 10%

Further, for CCOC(=O)c1sc(NC(=O)CCN2CCN(C)CC2)nc1C ? < 10%

Note, next up: CC(C(=O)Nc1nccs1)N1CCN(c2ccccc2)CC1 (centres undefined) < 10%

Others:
I have this compound here, Cc1cnc(NC(=O)CN2CCN(c3ccccc3)CC2)s1 , and I need its recorded inhibition of growth at 10 µM. < 10%

Check CCOC(=O)c1sc(NC(=O)C(C)N2CCCCC2)nc1C (centres undefined) too. < 10%

Consider next the compound CN1CCN(CCC(=O)Nc2nc(-c3ccccc3)cs2)CC1 in the same way. 13%

Another compound: Cc1cnc(NC(=O)CCN2CCN(c3ccccc3)CC2)s1 < 10%

Now consider O=C(CCCl)Nc1nc(-c2ccccc2)cs1 and answer again. 59.6%

Try the compound Cc1csc(NC(=O)C(C)N2CCN(C)CC2)n1 (centres undefined) < 10%

Now the same for O=C(CN1CCN(c2ccccc2)CC1)Nc1nc(-c2ccccc2)cs1 23%

Now give it for CCOC(=O)c1sc(NC(=O)C(C)N2CCN(C)CC2)nc1C (centres undefined) too. < 10%

Likewise for CCOC(=O)c1sc(NC(=O)CCN2CCN(c3ccccc3)CC2)nc1C ? < 10%

====

test system: LOX IMVI; test: Growth inhibition of human LOXIMVI cells at 10 uM after 48 hrs by coulter counter analysis; type: functional; details: read-out: GI
measure.name: inhibition of growth at 10 µM

In the examples that follow, each entry is paired with its recorded inhibition of growth at 10 µM.
Item CCOC(=O)c1sc(NC(=O)CCN2CCN(c3ccccc3)CC2)nc1C has what recorded inhibition of growth at 10 µM? < 10%

Consider next the compound Cc1csc(NC(=O)C(C)N2CCN(C)CC2)n1 (stereo unspecified) in the same way. 46.4%

Moving on to the next compound: Cc1cnc(NC(=O)CN2CCN(C)CC2)s1 < 10%

What would you report for CCOC(=O)c1sc(NC(=O)C(C)N2CCN(C)CC2)nc1C (stereo unspecified) ? < 10%

And then CCOC(=O)c1sc(NC(=O)C(C)N2CCCCC2)nc1C (stereo unspecified) , what is it? < 10%

# ---- query compound ----
Fill blank: measured inhibition of growth at 10 µM of the compound Cc1csc(NC(=O)C(C)N2CCN(c3ccccc3)CC2)n1 (stereo unspecified) is ____. < 10%
